target.of.assay: T1, Human CD3eg linker (human)
T1 construct: Single-chain construct; also called recombinant human CD3
T1 chain: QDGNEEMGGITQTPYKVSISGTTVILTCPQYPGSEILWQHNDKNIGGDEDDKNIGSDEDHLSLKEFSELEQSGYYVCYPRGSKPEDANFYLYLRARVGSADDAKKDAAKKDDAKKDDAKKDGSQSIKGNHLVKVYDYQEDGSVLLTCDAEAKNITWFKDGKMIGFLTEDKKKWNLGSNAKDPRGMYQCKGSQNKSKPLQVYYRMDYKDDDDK
assay.details: SPR; fold vs parent H183/L072
# fold change of affinity annotations
Answer format: numeric, fold implied, no suffix.

In the examples that follow, each entry is paired with its recorded fold change of affinity.
binder	units.of.measure	fold change of affinity
H183/L072 VL N28D (antibody, name in Kabat numbering, V domains shown) VH: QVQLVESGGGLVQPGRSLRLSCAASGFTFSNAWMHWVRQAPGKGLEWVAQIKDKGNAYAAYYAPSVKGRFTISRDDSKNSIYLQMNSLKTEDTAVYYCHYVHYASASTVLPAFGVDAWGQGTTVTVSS VL: DIVMTQSPLSLPVTPGEPASISCQASQELVHMDRNTYLHWYQQKPGQAPRLLIYKVSNRFPGVPDRFSGSGSGTDFTLKISRVEAEDVGVYYCAQGTSVPFTFGQGTKLEIK	fold	0
H183/L072 VL T31N (antibody, name in Kabat numbering, V domains shown) VH: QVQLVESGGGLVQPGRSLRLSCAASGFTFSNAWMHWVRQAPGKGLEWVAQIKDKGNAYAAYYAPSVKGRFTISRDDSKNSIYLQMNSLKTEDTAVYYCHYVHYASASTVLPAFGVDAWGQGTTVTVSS VL: DIVMTQSPLSLPVTPGEPASISCQASQELVHMNRNNYLHWYQQKPGQAPRLLIYKVSNRFPGVPDRFSGSGSGTDFTLKISRVEAEDVGVYYCAQGTSVPFTFGQGTKLEIK	fold	0
H183/L072 VL L33N (antibody, name in Kabat numbering, V domains shown) VH: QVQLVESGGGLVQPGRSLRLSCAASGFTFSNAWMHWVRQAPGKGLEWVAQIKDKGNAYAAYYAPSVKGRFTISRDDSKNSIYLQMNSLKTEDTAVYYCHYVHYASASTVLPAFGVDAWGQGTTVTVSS VL: DIVMTQSPLSLPVTPGEPASISCQASQELVHMNRNTYNHWYQQKPGQAPRLLIYKVSNRFPGVPDRFSGSGSGTDFTLKISRVEAEDVGVYYCAQGTSVPFTFGQGTKLEIK	fold	0
H183/L072 VL Y32Q (antibody, name in Kabat numbering, V domains shown) VH: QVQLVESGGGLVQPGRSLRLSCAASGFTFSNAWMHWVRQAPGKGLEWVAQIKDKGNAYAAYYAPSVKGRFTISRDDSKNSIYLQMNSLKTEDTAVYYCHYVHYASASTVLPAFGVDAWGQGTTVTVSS VL: DIVMTQSPLSLPVTPGEPASISCQASQELVHMNRNTQLHWYQQKPGQAPRLLIYKVSNRFPGVPDRFSGSGSGTDFTLKISRVEAEDVGVYYCAQGTSVPFTFGQGTKLEIK	fold	0
H183/L072 VL S26P (antibody, name in Kabat numbering, V domains shown) VH: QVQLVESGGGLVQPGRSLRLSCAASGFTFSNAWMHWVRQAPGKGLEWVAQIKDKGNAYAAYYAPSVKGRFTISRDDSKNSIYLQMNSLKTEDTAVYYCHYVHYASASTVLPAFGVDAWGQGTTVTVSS VL: DIVMTQSPLSLPVTPGEPASISCQAPQELVHMNRNTYLHWYQQKPGQAPRLLIYKVSNRFPGVPDRFSGSGSGTDFTLKISRVEAEDVGVYYCAQGTSVPFTFGQGTKLEIK	fold	0.2
H183/L072 VL S93E (antibody, name in Kabat numbering, V domains shown) VH: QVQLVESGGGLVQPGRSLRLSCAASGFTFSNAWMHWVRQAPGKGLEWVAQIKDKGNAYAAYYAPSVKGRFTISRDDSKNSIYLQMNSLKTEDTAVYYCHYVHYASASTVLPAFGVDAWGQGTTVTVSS VL: DIVMTQSPLSLPVTPGEPASISCQASQELVHMNRNTYLHWYQQKPGQAPRLLIYKVSNRFPGVPDRFSGSGSGTDFTLKISRVEAEDVGVYYCAQGTEVPFTFGQGTKLEIK	fold	1
H183/L072 VL N30H (antibody, name in Kabat numbering, V domains shown) VH: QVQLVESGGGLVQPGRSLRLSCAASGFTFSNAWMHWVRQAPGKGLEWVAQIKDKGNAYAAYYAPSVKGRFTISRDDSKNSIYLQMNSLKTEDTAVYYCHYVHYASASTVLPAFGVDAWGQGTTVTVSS VL: DIVMTQSPLSLPVTPGEPASISCQASQELVHMNRHTYLHWYQQKPGQAPRLLIYKVSNRFPGVPDRFSGSGSGTDFTLKISRVEAEDVGVYYCAQGTSVPFTFGQGTKLEIK	fold	0.8
H183/L072 VL T31S (antibody, name in Kabat numbering, V domains shown) VH: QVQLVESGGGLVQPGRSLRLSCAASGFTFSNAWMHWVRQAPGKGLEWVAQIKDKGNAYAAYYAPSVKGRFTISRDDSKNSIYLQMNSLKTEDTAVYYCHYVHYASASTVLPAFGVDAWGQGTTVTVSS VL: DIVMTQSPLSLPVTPGEPASISCQASQELVHMNRNSYLHWYQQKPGQAPRLLIYKVSNRFPGVPDRFSGSGSGTDFTLKISRVEAEDVGVYYCAQGTSVPFTFGQGTKLEIK	fold	0.5

IN: Consider the binder H183/L072 VL P56M (antibody, name in Kabat numbering, V domains shown) VH: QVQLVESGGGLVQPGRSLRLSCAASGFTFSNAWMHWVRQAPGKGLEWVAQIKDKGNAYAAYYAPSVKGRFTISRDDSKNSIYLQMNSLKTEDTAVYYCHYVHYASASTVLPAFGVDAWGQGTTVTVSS VL: DIVMTQSPLSLPVTPGEPASISCQASQELVHMNRNTYLHWYQQKPGQAPRLLIYKVSNRFMGVPDRFSGSGSGTDFTLKISRVEAEDVGVYYCAQGTSVPFTFGQGTKLEIK and give its measured fold change of affinity.
OUT: 3.9

IN: # lookup: fold change of affinity of H183/L072 VL S93V (antibody, name in Kabat numbering, V domains shown) VH: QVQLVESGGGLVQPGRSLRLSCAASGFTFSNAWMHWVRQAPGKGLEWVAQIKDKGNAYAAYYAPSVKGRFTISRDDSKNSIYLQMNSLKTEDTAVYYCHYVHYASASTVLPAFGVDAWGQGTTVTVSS VL: DIVMTQSPLSLPVTPGEPASISCQASQELVHMNRNTYLHWYQQKPGQAPRLLIYKVSNRFPGVPDRFSGSGSGTDFTLKISRVEAEDVGVYYCAQGTVVPFTFGQGTKLEIK
OUT: 0.7
